FYI, the data here is from PubChem BioAssay (NCI).

Tested on: A498 renal
Experimental Protocol: NCI tumour cell line growth inhibition, 48 h
Recorded Endpoint: TGI

Solved cases below.
Molecule: S=c1nc2[nH]ncc2c(N/N=C/c2ccccc2)[nH]1
TGI: 73.4 µM

Molecule: OCC1NCC(O)C(O)C1O (stereo unspecified)
TGI: > 100 µM

Need TGI of COC(=O)C1=NN2c3ccccc3C(=O)OCCC2(C)C1 (stereo unspecified) , thanks.
> 100 µM

Now give it for COC(=O)C1Cc2cccc(C)c2C1 (stereo unspecified) too.
> 100 µM

Request: O=C(NCc1ccccc1)c1cc2cc(O)c(O)cc2cn1
> 100 µM

Another: C=C1C(=O)O[C@@H]2C(=O)[C@@H](C)[C@@H]3C=CC(=O)[C@@]3(C)[C@@H](OC(=O)/C(C)=C\C)[C@H]12
3.44 µM

Same read-out for O=c1cc(-c2ccc(Cl)cc2)[nH]c2ncccc12 ?
> 100 µM

Here is the next molecule: NCCNc1nc(N2CCCC2)c2nc(Cl)c(NCc3ccccc3)nc2n1
4.4 µM

Item: Clc1cc(Cl)c(Cl)c(-c2nc(-c3cccnc3)cs2)c1
> 100 µM
